Assignment: determine reported protein stability index for the given variants.
B1: TFE3 (parent)
chain: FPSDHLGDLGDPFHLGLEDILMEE

# Variants of: B1
# Protocol: protein stability index of a GFP-peptide fusion (GPS, HEK-293T) (PSI 1-6); higher = more stable;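 note: lentivirally expressed fusions sorted by FACS into six bins by GFP to DsRed ratio, PSI derived from sequencing read proportions per bin multiplied by bin number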
# Cond: c terminus: a fixed tail appended
Note: the reply should be a number with no unit written.

Prompt: Give the measured protein stability index for E18P
Response: 3.07

Prompt: Determine its reported protein stability index: E24D
Response: 3.54

Prompt: Look up protein stability index of L21N and report it.
Response: 3.85

Prompt: Provide measured protein stability index value, entry: D11V
Response: 3.32

Prompt: Please look at this variant and report its protein stability index: L15N
Response: 3.77

Prompt: Read off the recorded protein stability index for M22G
Response: 3.64

Prompt: Dear colleague, please send me the reported protein stability index for F1D when you can.
Response: 4.84

Prompt: Identify measured protein stability index associated with D8S
Response: 3.19

Prompt: Please list protein stability index recorded for the variant F13T
Response: 4.93

Prompt: Assign protein stability index to the following record: P12Y
Response: 3.4

Prompt: Please indicate protein stability index recorded for M22C
Response: 3.53

Prompt: Let me know recorded protein stability index for L17R , thanks.
Response: 3.55

Prompt: Please give the documented protein stability index of P2K
Response: 3.97

Prompt: Given the variant G7E , write its reported protein stability index.
Response: 3.92

Prompt: # return recorded protein stability index for input G10T
Response: 3.46

Prompt: # return recorded protein stability index for input D11Q
Response: 4.41

Prompt: Fill in reported protein stability index for this entry: H14Q
Response: 4.09

Prompt: Given the variant M22H , write its reported protein stability index.
Response: 3.7

Prompt: Give the measured protein stability index for D4I
Response: 2.76

Prompt: Give reported protein stability index value for G16A
Response: 3.58

Prompt: Tell me protein stability index reported for E18Y
Response: 2.1

Prompt: Supply reported protein stability index belonging to this variant: P2T
Response: 2.74

Prompt: Give reported protein stability index value for L21C
Response: 3.42

Prompt: Given the variant E24S , write its reported protein stability index.
Response: 2.91

Prompt: Please report protein stability index for the following variant: G7I
Response: 3.12

Prompt: Using the record for L21D , state its measured protein stability index.
Response: 4.26

Prompt: Could you please provide reported protein stability index for H5R ? Thanks!
Response: 3.52

Prompt: Output measured protein stability index for this item: D19T
Response: 2.58

Prompt: Write down protein stability index measured for item D11H
Response: 2.27

Prompt: Read the entry L9H and write its reported protein stability index.
Response: 3.66

Prompt: Name the recorded protein stability index of the item L15K in your answer.
Response: 3.1

Prompt: Please give the documented protein stability index of L21Q
Response: 3.94

Prompt: Note down protein stability index recorded for H14F
Response: 3.09

Prompt: Name the recorded protein stability index of the variant listed here: G16I
Response: 2.31

Prompt: Answer with the recorded protein stability index of F1L only.
Response: 4.55

Prompt: For the variant P12F , give its measured protein stability index value.
Response: 4.01

Prompt: Identify protein stability index associated with the variant D19S
Response: 2.69

Prompt: Identify measured protein stability index corresponding to H5S
Response: 3.81

Prompt: Give the reported value of protein stability index for this record: F13R
Response: 4.74

Prompt: Indicate the recorded protein stability index value for this variant: P2I
Response: 2.12

Prompt: Write down protein stability index measured for item G16K
Response: 3.3

Prompt: Give the measured protein stability index for E24Q
Response: 2.96

Prompt: Using known records, supply protein stability index for H14T
Response: 3.64

Prompt: Specify reported protein stability index for the variant shown: F13M
Response: 4.7

Prompt: Please look at this variant and report its protein stability index: G16C
Response: 2.7

Prompt: Given the variant F13G , write its reported protein stability index.
Response: 4.97

Hey, just so you know, these numbers are from the supplement of paper PMC10567573.
